Experiment: Photostability test according to ICH Q1B
Assay type: physicochemical
Details: Exposure, 0.5 ICH (5-day)
reported property: Crystalline form after completion of storage period

Cc1ncc(-c2nc(-c3ccccc3)c(NC(=O)N[C@@H]3c4ccccc4C(C)(C)C[C@H]3O)cc2C)cn1 [Example 5] : Type I crystal
Cc1ncc(-c2nc(-c3ccccc3)c(NC(=O)N[C@@H]3c4ccccc4C(C)(C)C[C@H]3O)cc2C)cn1 [Example 2] : Type I crystal

###

Test: Photostability test according to ICH Q1B
Type: physicochemical
Conditions: Shielded from light by aluminum foil, 1 ICH
reported property: Chemical purity (%)
Numbers only, in %.

These solved cases illustrate the format of a correct answer.
Cc1ncc(-c2nc(-c3ccccc3)c(NC(=O)N[C@@H]3c4ccccc4C(C)(C)C[C@H]3O)cc2C)cn1 [Example 3] : 100.0
Cc1ncc(-c2nc(-c3ccccc3)c(NC(=O)N[C@@H]3c4ccccc4C(C)(C)C[C@H]3O)cc2C)cn1 [Example 5] : 99.8
Cc1ncc(-c2nc(-c3ccccc3)c(NC(=O)N[C@@H]3c4ccccc4C(C)(C)C[C@H]3O)cc2C)cn1 [Example 4] : 99.9

Okay, now this compound:
stdin: Value lookup for Chemical purity (%); key = Cc1ncc(-c2nc(-c3ccccc3)c(NC(=O)N[C@@H]3c4ccccc4C(C)(C)C[C@H]3O)cc2C)cn1 [Example 2]
stdout: 99.8

###

Test: Photostability test according to ICH Q1B
Assay type: physicochemical
Settings: Shielded from light by aluminum foil, 1 ICH
reported property: Crystalline form after completion of storage period

Cc1ncc(-c2nc(-c3ccccc3)c(NC(=O)N[C@@H]3c4ccccc4C(C)(C)C[C@H]3O)cc2C)cn1 [Example 2] : Type I crystal
Cc1ncc(-c2nc(-c3ccccc3)c(NC(=O)N[C@@H]3c4ccccc4C(C)(C)C[C@H]3O)cc2C)cn1 [Example 5] : Type I crystal

###

Experiment: Photostability test according to ICH Q1B
Format: physicochemical
Conditions: Exposure, Before the test
reported property: Crystalline form after completion of storage period

Cc1ncc(-c2nc(-c3ccccc3)c(NC(=O)N[C@@H]3c4ccccc4C(C)(C)C[C@H]3O)cc2C)cn1 [Example 5] : Type I crystal
Cc1ncc(-c2nc(-c3ccccc3)c(NC(=O)N[C@@H]3c4ccccc4C(C)(C)C[C@H]3O)cc2C)cn1 [Example 2] : Type I crystal

###

Would you mind telling me the reported Chemical purity (%) of each entry?
Experiment: Storage stability test
Type: physicochemical
Settings: 25° C./60% RH, open for 1 month
Give bare numbers, in %.

Your task in this section: give Chemical purity (%) for each listed record.
1. Cc1ncc(-c2nc(-c3ccccc3)c(NC(=O)N[C@@H]3c4ccccc4C(C)(C)C[C@H]3O)cc2C)cn1 [Example 2]
2. Cc1ncc(-c2nc(-c3ccccc3)c(NC(=O)N[C@@H]3c4ccccc4C(C)(C)C[C@H]3O)cc2C)cn1 [Example 5]
3. Cc1ncc(-c2nc(-c3ccccc3)c(NC(=O)N[C@@H]3c4ccccc4C(C)(C)C[C@H]3O)cc2C)cn1 [Example 3]
4. Cc1ncc(-c2nc(-c3ccccc3)c(NC(=O)N[C@@H]3c4ccccc4C(C)(C)C[C@H]3O)cc2C)cn1 [Example 4]

stdout:
1. 99.8
2. 99.9
3. 100.00
4. 99.8

###

Test: Pharmacokinetic study, single oral dose in rats
Assay type: in vivo
Settings: male, Crl:CD (SD), rat, plasma, po, 600 mg/kg, oral single dose 600 mg/kg in 0.5 w/v % methylcellulose 400, read-out: Maximum Plasma Concentration (Cmax)
reported property: Cmax

stdin: Value lookup for Cmax; key = `Cc1ncc(-c2nc(-c3ccccc3)c(NC(=O)N[C@@H]3c4ccccc4C(C)(C)C[C@H]3O)cc2C)cn1`
stdout: 29700 ng/mL

###

Test: Photostability test according to ICH Q1B
Type: physicochemical
Conditions: Shielded from light by aluminum foil, 0.5 ICH
Description: (Test Example 3) Photostability Test […]
reported property: Chemical purity (%)
Answers are plain numbers, in %.

Cc1ncc(-c2nc(-c3ccccc3)c(NC(=O)N[C@@H]3c4ccccc4C(C)(C)C[C@H]3O)cc2C)cn1 [Example 2] : 99.8

Your task in this section: give Chemical purity (%) for each listed record.
1. Cc1ncc(-c2nc(-c3ccccc3)c(NC(=O)N[C@@H]3c4ccccc4C(C)(C)C[C@H]3O)cc2C)cn1 [Example 4]
2. Cc1ncc(-c2nc(-c3ccccc3)c(NC(=O)N[C@@H]3c4ccccc4C(C)(C)C[C@H]3O)cc2C)cn1 [Example 5]
3. Cc1ncc(-c2nc(-c3ccccc3)c(NC(=O)N[C@@H]3c4ccccc4C(C)(C)C[C@H]3O)cc2C)cn1 [Example 3]

stdout:
1: 99.9; 2: 99.8; 3: 100.0

###

Experiment: Storage stability test
Format: physicochemical
Settings: 40° C./75% RH, open for 1 month
Would you mind telling me the reported Chemical purity (%) of each entry?
Give bare numbers, in %.

Cc1ncc(-c2nc(-c3ccccc3)c(NC(=O)N[C@@H]3c4ccccc4C(C)(C)C[C@H]3O)cc2C)cn1 [Example 4] : 99.8

Your task in this section: give Chemical purity (%) for each listed record.
1. Cc1ncc(-c2nc(-c3ccccc3)c(NC(=O)N[C@@H]3c4ccccc4C(C)(C)C[C@H]3O)cc2C)cn1 [Example 3]
2. Cc1ncc(-c2nc(-c3ccccc3)c(NC(=O)N[C@@H]3c4ccccc4C(C)(C)C[C@H]3O)cc2C)cn1 [Example 5]
3. Cc1ncc(-c2nc(-c3ccccc3)c(NC(=O)N[C@@H]3c4ccccc4C(C)(C)C[C@H]3O)cc2C)cn1 [Example 2]

stdout:
[100.00, 99.9, 99.8]

###

Assay: Storage stability test
Assay type: physicochemical
Details: Before the test
Experimental: For the stability test, approximately 20 mg of the test sample was stored at 25° C./60% RH or at 40° C./75% RH in open or closed condition for 1 month using a small environmental tester SH-641 (manufactured by Espec), and changes in purity and in crystalline form were observed. For purity measurement, equipment of Waters ACQUITY UPLC H-Class (manufactured by Waters) and column of Waters ACQUITY BEH C18 (particle diameter […], size 2.1×50 mm) are used. […]
reported property: Chemical purity (%)
Give bare numbers, in %.

Your task in this section: give Chemical purity (%) for each listed record.
1. Cc1ncc(-c2nc(-c3ccccc3)c(NC(=O)N[C@@H]3c4ccccc4C(C)(C)C[C@H]3O)cc2C)cn1 [Example 4]
2. Cc1ncc(-c2nc(-c3ccccc3)c(NC(=O)N[C@@H]3c4ccccc4C(C)(C)C[C@H]3O)cc2C)cn1 [Example 5]
3. Cc1ncc(-c2nc(-c3ccccc3)c(NC(=O)N[C@@H]3c4ccccc4C(C)(C)C[C@H]3O)cc2C)cn1 [Example 2]
4. Cc1ncc(-c2nc(-c3ccccc3)c(NC(=O)N[C@@H]3c4ccccc4C(C)(C)C[C@H]3O)cc2C)cn1 [Example 3]

stdout:
99.8
99.8
99.8
100.00

###

Assay: Photostability test according to ICH Q1B
Type: physicochemical
Details: Exposure, Before the test
Would you mind telling me the reported Chemical purity (%) of each entry?
Numbers only, in %.

These solved cases illustrate the format of a correct answer.
Cc1ncc(-c2nc(-c3ccccc3)c(NC(=O)N[C@@H]3c4ccccc4C(C)(C)C[C@H]3O)cc2C)cn1 [Example 4] : 99.9
Cc1ncc(-c2nc(-c3ccccc3)c(NC(=O)N[C@@H]3c4ccccc4C(C)(C)C[C@H]3O)cc2C)cn1 [Example 5] : 99.8
Cc1ncc(-c2nc(-c3ccccc3)c(NC(=O)N[C@@H]3c4ccccc4C(C)(C)C[C@H]3O)cc2C)cn1 [Example 2] : 99.8

Okay, now this molecule:
stdin: Value lookup for Chemical purity (%); key = Cc1ncc(-c2nc(-c3ccccc3)c(NC(=O)N[C@@H]3c4ccccc4C(C)(C)C[C@H]3O)cc2C)cn1 [Example 3]
stdout: 100.0

###

Test: Photostability test according to ICH Q1B
Format: physicochemical
Details: Shielded from light by aluminum foil, 0.5 ICH
reported property: Crystalline form after completion of storage period

Cc1ncc(-c2nc(-c3ccccc3)c(NC(=O)N[C@@H]3c4ccccc4C(C)(C)C[C@H]3O)cc2C)cn1 [Example 5] : Type I crystal
Cc1ncc(-c2nc(-c3ccccc3)c(NC(=O)N[C@@H]3c4ccccc4C(C)(C)C[C@H]3O)cc2C)cn1 [Example 2] : Type I crystal

###

Test: Photostability test according to ICH Q1B
Format: physicochemical
Conditions: Shielded from light by aluminum foil, Before the test
reported property: Chemical purity (%)
Field: value (include unit after the number)

Cc1ncc(-c2nc(-c3ccccc3)c(NC(=O)N[C@@H]3c4ccccc4C(C)(C)C[C@H]3O)cc2C)cn1 [Example 2] : 99.8%

Your task in this section: give Chemical purity (%) for each listed record.
1. Cc1ncc(-c2nc(-c3ccccc3)c(NC(=O)N[C@@H]3c4ccccc4C(C)(C)C[C@H]3O)cc2C)cn1 [Example 5]
2. Cc1ncc(-c2nc(-c3ccccc3)c(NC(=O)N[C@@H]3c4ccccc4C(C)(C)C[C@H]3O)cc2C)cn1 [Example 4]
3. Cc1ncc(-c2nc(-c3ccccc3)c(NC(=O)N[C@@H]3c4ccccc4C(C)(C)C[C@H]3O)cc2C)cn1 [Example 3]

stdout:
99.8%
99.9%
100.0%
